Reported Emax by item:
- target_of_assay: human FXR (NR1H4) (Homo sapiens)
- Sequence (Q96RI1 1-486): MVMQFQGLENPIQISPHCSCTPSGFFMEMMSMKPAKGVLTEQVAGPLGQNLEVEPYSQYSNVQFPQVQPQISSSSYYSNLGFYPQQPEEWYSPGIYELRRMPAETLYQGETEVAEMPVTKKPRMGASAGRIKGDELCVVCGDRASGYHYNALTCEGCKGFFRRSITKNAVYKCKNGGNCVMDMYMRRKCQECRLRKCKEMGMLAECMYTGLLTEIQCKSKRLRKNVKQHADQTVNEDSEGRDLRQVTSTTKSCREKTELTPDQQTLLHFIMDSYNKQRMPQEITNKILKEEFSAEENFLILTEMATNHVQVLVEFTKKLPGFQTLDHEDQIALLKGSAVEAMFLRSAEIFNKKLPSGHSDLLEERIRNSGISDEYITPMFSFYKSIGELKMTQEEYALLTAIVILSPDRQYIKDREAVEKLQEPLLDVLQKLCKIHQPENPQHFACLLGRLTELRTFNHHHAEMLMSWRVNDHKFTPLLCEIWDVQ
- assay_explanation: Human FXR (NR1H4) Assay: Gal4 promoter driven luciferase reporter transactivation in CHO cells (Indigo Bioscience kit IB00601)
- Assay type: cell-based
- conditions: CHO, efficacy normalized to CDCA set as 100%; read-out: Efficacy (%)
value_type: Emax

compound="O=C(c1ccc(-c2cccc(NC(=O)N3C4CCC3CC(OCc3c(-c5c(Cl)cccc5Cl)noc3C3CC3)C4)c2)cc1)N1CCOCC1 (stereo not drawn)" value_type=Emax value_measured=220%
compound="COC(=O)c1ccc(NC(=O)N2C3CCC2CC(OCc2c(-c4ccccc4OC(F)(F)F)noc2C2CC2)C3)cc1OC(F)(F)F (stereo not drawn)" value_type=Emax value_measured=75%
compound="CC(=O)N1CC=C(c2cccc(NC(=O)N3C4CCC3CC(OCc3c(-c5c(Cl)cccc5Cl)noc3C3CC3)C4)c2)CC1 (stereo not drawn)" value_type=Emax value_measured=162%
compound="COc1ccc(-c2cc(NC(=O)N3C4CCC3CC(OCc3c(-c5c(Cl)cccc5Cl)noc3C3CC3)C4)ccc2C(=O)O)cn1 (stereo not drawn)" value_type=Emax value_measured=97%
compound="COC(=O)c1ccc(NC(=O)N2C3CCC2CC(OCc2c(-c4c(Cl)cccc4Cl)noc2C2CC2)C3)c(C(F)(F)F)c1 (stereo not drawn)" value_type=Emax value_measured=119%
compound="C[C@H](NC(=O)N1C2CCC1CC(OCc1c(-c3c(Cl)cccc3Cl)noc1C1CC1)C2)c1ccccc1 (stereo partly drawn)" value_type=Emax value_measured=242%
